# procedureSummary: soluble on expression in E. coli; label from the status in PepcDB or PDB records
readout: soluble on expression in E. coli

1. MGSDKIHHHHHHMMSGLVYRKRRRQNMTALERSWFEEAQQSMHGWDFSHLAGRWQTADLPWDYAALVREHLSADDRWLDIDTGGGELMGRFNPQPALTAVTEGWQPNIELLKQTVVKKGITLYPDAAEQLTAVPNSTFDIVTNSHGAMPVKRIAEVLKPGGRFVTQQVGATNNYALSRFFDEHYETAYPDNQLLTVMAQMQAAGFEILRAEQAYAALSFTDVGAIVYYATVIPWEFPHFDVARMLPKLHQLQSLLAINGRVTTFEDRFMIIARKLARRD : not soluble
2. MGSSHHHHHHHSSGLVPRGSHMMRKRARIIYNPTSGKEQFKRELPDALIKLEKAGYETSAYATEKIGDATLEAERAMHENYDVLIAAGGDGTLNEVVNGIAEKPNRPKLGVIPMGTVNDFGRALHIPNDIMGALDVIIEGHSTKVDIGKMNNRYFINLAAGGQLTQVSYETPSKLKSIVGPFAYYIKGFEMLPQMKAVDLRIEYDGNVFQGEALLFFLGLTNSMAGFEKLVPDAKLDDGYFTLIIVEKSNLAELGHIMTLASRGEHTKHPKVIYEKAKAINISSFTDLQLNVDGEYGGKLPANFLNLERHIDVFAPNDIVNEELINNDHVDDNLIEE : soluble
3. MRGPAPMPDTSLSTFLARPAPTILVEIEAVKGSSPREAGTFMLVSQEALWETIGGGQFEYMAIDHARAMLRTGAAEDRMDIPLGPEIGQCCGGRTLIRFRLITAEIAATLEARLKGEAEQQPAVFIFGAGHVGKALADALSLLPLTLKVVETRESELRDIPAGIASILTPMPEAFVQKIPANGAAIIVTHDHALDFLIAKEALARDDLAYVGMIGSKTKRATFAHWLEREGEPPSRLAKLTLPIGGTGVRDKRPAVIAALVAAELLQAFSVAETRRSENRHDHPQGQDRA : not soluble
4. MVEDILAPGLRVVFCGINPGLSSAGTGFPFAHPANRFWKVIYQAGFTDRQLKPQEAQHLLDYRCGVTKLVDRPTVQANEVSKQELHAGGRKLIEKIEDYQPQALAILGKQAYEQGFSQRGAQWGKQTLTIGSTQIWVLPNPSGLSRVSLEKLVEAYRELDQALVVRGR : soluble
5. MKDSKFPYYFSNALLMLVPRFVYRAQAKRLLSTLTEAEKQYCLERVNYYNKCGQPFTVDSREQSYAKIGEFKKTKGWTYFFDTRQVIRYFPSEFTFNYINGDVTHIPNVPSFIKSRPIHGDNQNSVVLKLNQIRHFKFVDDEMSYHDKKDMVAWRGVGFQPHRCKVIQAFYDHPRCNIGQTRPQEGQPWEKGFMSIEEQLQYKFLLCIEGNDVATNLKWAMSSNSLVIMSKPKYETWFMEGKLEAGIHYVEVQDDYSDLPEKMDYYLANEQEALAIIENAHQWVEQFKDKRKERLISLMVADKYFTLSHQQLEHHHHHH : soluble
6. MQQSTLVRLKEKLTLKNPIMVVGLPGVGLVGKLVAEHLVDELAAERIMEVYSPHFPPQVLVNKDCTVRPVSNTIYLGKANETDVLFLVGDHQSTTAQGHYELCSLYLDIAEELKVPRIYTLGGYPTGKLTYEDTVLGVANSTELIEEIKQYGVEFRESEPSGGIVGASGLLVAFSGMRGIDAACLMGMTPGYLMDPKSAQSLLKVLCNIFGIEVNTDSLKKKAEEMENILEKLKEKEEQQNLPEVKPTEEDLRYIG : soluble
